Just for reference, ChEMBL document CHEMBL5665443 is where these values come from.

- STUDY TARGET: Methyl-CpG-binding domain protein 4 (Homo sapiens) (UniProt O95243);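 further: MBD4 activity read as fluorescence at 594 nm from cleavage and release of a quenched duplex DNA oligonucleotide, with APE1 coupled to incise the strand and raise turnover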
- Sequence (O95243 whole entry, the tested form may be a part): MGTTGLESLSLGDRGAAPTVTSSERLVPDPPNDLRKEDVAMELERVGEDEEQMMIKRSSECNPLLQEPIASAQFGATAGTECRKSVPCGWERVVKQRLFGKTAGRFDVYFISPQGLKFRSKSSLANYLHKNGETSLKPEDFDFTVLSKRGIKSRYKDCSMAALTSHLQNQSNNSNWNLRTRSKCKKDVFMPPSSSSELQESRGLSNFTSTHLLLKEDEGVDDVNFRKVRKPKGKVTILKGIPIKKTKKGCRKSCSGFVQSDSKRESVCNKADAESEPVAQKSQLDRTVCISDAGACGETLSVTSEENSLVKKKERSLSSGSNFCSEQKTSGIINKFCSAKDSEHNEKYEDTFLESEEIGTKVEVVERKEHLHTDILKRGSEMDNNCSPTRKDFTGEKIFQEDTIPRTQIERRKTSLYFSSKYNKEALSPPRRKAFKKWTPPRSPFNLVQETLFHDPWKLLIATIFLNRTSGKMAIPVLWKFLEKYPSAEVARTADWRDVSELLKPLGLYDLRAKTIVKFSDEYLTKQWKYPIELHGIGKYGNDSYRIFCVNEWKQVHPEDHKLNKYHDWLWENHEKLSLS
- CONDITION: Compound Concentration 10.0 uM, Hit No
- Description: Inhibition of MBD4 by quantifying inhibition of MBD4-mediated cleavage and dissociation of quenched duplex DNA oligonucleotides, measured as fluorescence at 594 nm. To generate a functional strand incision and increase turn-over this assay is coupled to APE1.
MEASURED ATTRIBUTE: inhibition (%)
Answers are plain numbers, in %.

Worked examples, 5 compounds total:
INSERT INTO results (compound, study_target, measured_attribute, observed_value) VALUES
  ('O=C(c1ccc(F)c(F)c1Nc1ccc(I)cc1F)N1CC(O)([C@@H]2CCCCN2)C1', 'Methyl-CpG-binding domain protein 4 (Homo sapiens) (UniProt O95243)', 'inhibition', 21.9),
  ('OC(CN1CCC(Cc2ccc(F)cc2)CC1)c1ccc(Cl)cc1 (stereo not given)', 'Methyl-CpG-binding domain protein 4 (Homo sapiens) (UniProt O95243)', 'inhibition', -0.39),
  ('O=C(O)CCC/C=C\C[C@H]1C(=O)C[C@@H](O)[C@@H]1/C=C/[C@@H](O)CCc1ccccc1', 'Methyl-CpG-binding domain protein 4 (Homo sapiens) (UniProt O95243)', 'inhibition', 13.3),
  ('Cc1cc(-c2ccnc(Nc3cnn(C)c3)n2)ccc1CNC(=O)N1CC(OC(C)C)C1', 'Methyl-CpG-binding domain protein 4 (Homo sapiens) (UniProt O95243)', 'inhibition', 12.6),
  ('CC(C)C(=O)N1CCC(c2cn(C)c3ncc(NC(=O)c4cccc(C#N)c4)c(C(F)(F)F)c23)CC1', 'Methyl-CpG-binding domain protein 4 (Homo sapiens) (UniProt O95243)', 'inhibition', 55.2);

For each of the compounds below, state inhibition.
1. CCC(C)N(C)C(=O)c1cc2ccccc2c(-c2ccccc2Cl)n1 (stereo not given)
2. O=[N+]([O-])c1ccc(CN2CCOCCOCCN(Cc3ccc([N+](=O)[O-])cc3)CCOCC2)cc1
3. NC(N)=Nc1nc(CSCC/C(N)=N/S(N)(=O)=O)cs1
4. CCCCCNC(=O)NS(=O)(=O)c1cc([N+](=O)[O-])ccc1NC1CCCCC1
5. O=C(NCc1cccnc1OCC(F)(F)F)c1cncc(-c2ccc(Cl)cc2)c1

Output line:
67
13.5
6.83
22.7
-9.96
